Taken from patent US20200223906A1.

# ASSAYED_TARGET: T1, RSV F subtype B, furin-cleaved ectodomain stabilized in the prefusion conformation (DS-Cav1) (Respiratory syncytial virus subtype B)
# T1 construct: extracellular domain; Trimeric soluble antigen; also called Prefusion subtype B
# PROCEDURE_SUMMARY: BLI, IgG on AHQ sensor, 100 nM antigen
Listing of recorded Kd by entry.
# output: bare number, implied unit nM

Dear colleague, please send me the reported Kd for ADI-18883 (antibody, V domains shown, full-length IgG from yeast) VH: QVQLVQSGPEVKKPGSSVTVSCKASGGTFSNYGIAWVRQAPGQGLEWMGSTIPILGTASYRQSLKDRVTITADASTTTVYMEMTRLRTEDTAVYFCARVPESLVASNAYAVWGQGTVVTVSS VL: DIQMTQSPSSVSASVGDRVTITCRASQDISTWLAWYQQRPGKAPKLLIYTASSLQSGVPSRFSGSGSGTEFTLTISSLQPEDFATYYCQQGTSFPFTFGPGTKLEIK when you can. 0.566

Dear colleague, please send me the reported Kd for ADI-18920 (antibody, V domains shown, full-length IgG from yeast; also called Antibody Number 274; Ab # 274) VH: EVQLLESGGGVVQPGRSLRLSCAASGFTFSSYAMHWVRQTPDKGLEWVALISDDGRNEYYADSVQGRFTISRDKSKNTLHLEMNSLRAEDTAVYYCAKVRNEAWELLGNDDALDVWGQGTMVTVSS VL: QSVLTQPPSVSAAPGQKVTISCSGTSFNIGSNYVSWYQLLPGTAPKLLIFDNYKRPSGIPDRFSGSWSGTSATLAISGLQTGDEAEYFCGTWDTSLRAGVFGGGTKLTVL when you can. 0.0977

Dear colleague, please send me the reported Kd for ADI-18976 (antibody, V domains shown, full-length IgG from yeast) VH: EVQLVETGPGLVKPSETLSLTCTVSGDSISGYYWSWIRQSPGKGLEWIGYIYYRGSTDYNPSLKSRVTISVDTSKNQFSLKLSSVTAADTAVYYCARDNKHHDSGNYYAYFDHWGQGTLVTVSS VL: DIVMTQSPSSLSASVGDRVTITCRASQNINTFLNWYQHKPGKAPKLLIYGASRLQSGVPSRFTGSGSGTDFTLTISSLQPEDFATYSCQQSYTTRLTFGGGTKVEIK when you can. 1.24
